# method: in vitro
# condition.details: African green monkey, CC50
measurement.type: CC50 (µM)
Give just the number in µM; leave the unit off.

| molecule | observed |
| --- | --- |
| O=C(CC12CC3CC(C1)CC(c1ccccc1)(C3)C2)NCC(=O)NC1CCN(Cc2ccccc2)CC1 [Example A12] | 2.5 |
| CC1CCN(CC(O)CCOc2ccc(C34CC5CC(CC(C5)C3)C4)cc2)CC1 (stereo not shown) [Example C7] | 4.1 |
| CC12CC3CC(C(=O)N[C@@H]4CN5CCC4CC5)(C1)CC(c1ccccc1)(C3)C2 (stereo partly shown) [Example A44] | 11 |
| CCN1CCN(CC(O)COc2ccc(C34CC5CC(CC(C5)C3)C4)cc2)CC1 (stereo not shown) [Example D25] | 3.1 |
| CCC12CC3CC(C(=O)N[C@H]4CC[C@H](N)CC4)(C1)CC(c1ccccc1)(C3)C2 (stereo partly shown) [Example A85] | 12.1 |
| O=C(NC1CCNCC1)c1ccc(NCC23CC4CC(C2)CC(c2ccccc2)(C4)C3)nc1 [Example C14] | 3.9 |
| O=C(CNC(=O)C12CC3CC(C1)CC(c1ccccc1)(C3)C2)N1CCC2(CCN(Cc3ccccc3)C2)C1 (stereo not shown) [Example A2] | 8.5 |
| O=C(CC12CC3CC(C1)CC(c1ccccc1)(C3)C2)NCC(=O)N1CC2CC1CN2Cc1ccccc1 (stereo not shown) [Example A14] | 6.2 |

// Input: N[C@H]1CC[C@H](NC(=O)NC23CC4CC(C2)CC(c2ccccc2)(C4)C3)CC1 [Example E2] . Output its CC50 only.
12.6

Supply measured CC50 of O=C(NC1CCNCC1)C12CC3CC(C1)CC(c1ccc(F)cc1)(C3)C2 [Example A75] in your reply.
17.7

Tell me CC50 reported for CC12CC3CC(C(=O)NC4CC5(CNC5)C4)(C1)CC(c1ccccc1)(C3)C2 (stereo not shown) [Example A89]
40.7

Return the recorded CC50 value; entry: CC12CC3CC(C(=O)N[C@@H]4CCNC[C@H]4F)(C1)CC(c1ccccc1)(C3)C2 (stereo partly shown) [Example A108]
16.5

Answer with reported CC50 of CC12CC3CC(C(=O)NCC4CCNCC4)(C1)CC(c1ccccc1)(C3)C2 (stereo not shown) [Example A95]
23.1

Identify CC50 associated with the molecule O=C(N1CCN(Cc2ccccc2)CC1)C12CC3CC(C1)CC(c1ccccc1)(C3)C2 [Example A29]
5.8

Specify measured CC50 for O=S(=O)(NC1CCNCC1)C12CC3CC(CC(C3)C1)C2 [Example A205] .
37

Please supply the value of reported CC50 for the item CC12CC3CC(C)(C1)CC(c1ccc(OC[C@@H](O)CN4CCCCC4)cc1)(C3)C2 [Example D39]
3.2

Return CC50 for the following molecule: O=C(CC12CC3CC(CC(C3)C1)C2)NC1CCN(Cc2ccccc2)CC1 [Example A51]
10

Answer with reported CC50 of O=C(CNC(=O)C12CC3CC(C1)CC(c1ccccc1)(C3)C2)NC1CCN(Cc2ccccc2)CC1 [Example A6]
16.8

Determine from records and report CC50 for CC12CC3CC(C(=O)N4CC5(CC(N)C5)C4)(C1)CC(c1ccccc1)(C3)C2 (stereo not shown) [Example A91]
17.4

Item OC(CCOc1ccc(C23CC4CC(CC(C4)C2)C3)cc1)CN1CCCCC1 (stereo not shown) [Example C8] : provide CC50
1.3

Please supply the value of reported CC50 for the item CC12CC3CC(C(=O)Nc4ccncc4)(C1)CC(c1ccccc1)(C3)C2 (stereo not shown) [Example A201]
16.4

Look up and state reported CC50 for CC1CCN(C[C@H](O)COCCC23CC4CC(C2)CC(c2ccccc2)(C4)C3)CC1 [Example C12]
1.2
